EXPERIMENTAL TARGET: Cbl-b (Homo sapiens)
Sequence (Q13191 36-427): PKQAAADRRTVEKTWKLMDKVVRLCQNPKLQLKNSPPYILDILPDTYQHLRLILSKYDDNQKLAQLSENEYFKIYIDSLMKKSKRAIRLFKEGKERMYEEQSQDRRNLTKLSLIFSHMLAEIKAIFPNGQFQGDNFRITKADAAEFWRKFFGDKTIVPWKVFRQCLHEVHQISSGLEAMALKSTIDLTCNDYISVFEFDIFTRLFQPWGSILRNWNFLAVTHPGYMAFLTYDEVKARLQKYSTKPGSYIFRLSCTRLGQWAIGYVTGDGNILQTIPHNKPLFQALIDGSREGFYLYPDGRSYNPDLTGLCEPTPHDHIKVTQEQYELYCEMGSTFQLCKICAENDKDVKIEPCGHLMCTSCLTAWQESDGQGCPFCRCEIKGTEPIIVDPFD
EXPERIMENT DESCRIPTION: Cbl-b activity assay (Cbl-b inhibition assay), TR-FRET of Cbl-b interaction with UbcH5B-Ub
Type: biochemical
MEASUREMENT SETUP: assay buffer with 100 mM NaCl, 60 nM Src kinase; read-out: Cbl-b activity IC50
pIC50: −log10 of the molar value.
Measured pIC50 values are reported for all entries that follow.

Below, 5 compounds whose answers are already recorded.
[[record]]
compound = "C[C@@H](c1cc2c(c(C(F)(F)F)c1)CN(c1cccc(C3(Cc4nncn4C)COC3)c1)C2=O)N1CCC(C)(F)CC1 [Example 553a]"
measured_attribute = "pIC50"
assay_value = "> 7.00"

[[record]]
compound = "C[C@H](Cc1nncn1C)c1cc(OC2COC2)nc(N2Cc3c(cccc3C(F)(F)F)C2=O)c1 [Compound 354]"
measured_attribute = "pIC50"
assay_value = "6.52 to 7.00"

[[record]]
compound = "Cn1cnnc1C(F)(F)C(C)(O)c1cccc(N2Cc3c(cccc3C(F)(F)F)C2=O)c1 (stereo not drawn) [Compound 295]"
measured_attribute = "pIC50"
assay_value = "5.00 to 5.52"

[[record]]
compound = "Cn1cnnc1CC1(c2cccc(N3Cc4c(cc(CN5CCOC(CCF)C5)cc4C(F)(F)F)C3=O)c2)COC1 (stereo not drawn) [Compound 521]"
measured_attribute = "pIC50"
assay_value = "> 7.00"

[[record]]
compound = "C[C@H](Cc1nncn1C)c1cccc(N2Cc3c(cc(CN4C[C@@H](F)[C@@H](O)C4)cc3C(F)(F)F)C2=O)c1 [Compound 418]"
measured_attribute = "pIC50"
assay_value = "> 7.00"


# pIC50 (compound: C[C@H](Cc1nncn1C)c1cccc(NC(=O)c2cc(C(=O)N3CCC(CO)C3)ccn2)c1 (stereo partly drawn) [Compound 245] ) is 5.52 to 6.00

# pIC50 (compound: C[C@H](c1cc2c(c(C(F)(F)F)c1)CN(c1cccc(C3(Cc4nncn4C)COC3)c1)C2=O)N1CCC2(CC1)CC2 [Example 558b] ) is > 7.00

# pIC50 (compound: C[C@H](Sc1nncn1C)c1ccnc(N2Cc3c(cccc3C(F)(F)F)C2=O)c1 [Compound 172a] ) is 6.00 to 6.52

# pIC50 (compound: COC(Cc1nncn1C)c1cccc(N2Cc3c(cccc3C(F)(F)F)C2=O)c1 (stereo not drawn) [Compound 290] ) is 5.52 to 6.00

# pIC50 (compound: Cc1cc(C(=O)Nc2cccc([C@H](C)Cc3nncs3)c2)nc(C2CC2)n1 [Compound 334] ) is 6.52 to 7.00

# pIC50 (compound: Cn1cnnc1C(F)(F)C1(c2cccc(N3Cc4c(cc(CN5CC(F)C5)cc4C(F)(F)F)C3=O)c2)COC1 [Example 679] ) is > 7.00

# pIC50 (compound: CC1C(C(F)(F)F)CCN1Cc1cc2c(c(C(F)(F)F)c1)CN(c1cccc(C3(Cc4nncn4C)COC3)c1)C2=O (stereo not drawn) [Example 588] ) is > 7.00

# pIC50 (compound: Cn1cnnc1CC1(c2cccc(N3Cc4c(cc(CN5C[C@H]6C[C@H]6C5)cc4C(F)(F)F)C3=O)c2)COC1 [Compound 429] ) is > 7.00

# pIC50 (compound: C[C@H](Cc1nncn1C)c1cccc(NC(=O)c2cc(C(=O)N3CC[C@](C)(N)C3)ccn2)c1 [Compound 229] ) is 5.52 to 6.00

# pIC50 (compound: Cc1cc(C(=O)Nc2cccc(C3(Cc4nncn4C)CC(F)(F)C3)c2)nc(C2CC2)n1 [Compound 526] ) is > 7.00
